Test system: PPARg:RXRa (NR concentration 180 nM, RXRa partner concentration 90 nM)
Experiment: PBM binding z-score (relative to random genomic background probes); higher = stronger binding; sequences stand for … in GC…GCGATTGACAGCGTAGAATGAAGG
quantityKind: PBM binding z-score

Notebook entry, PPARg:RXRa (NR concentration 180 nM, RXRa partner concentration 90 nM) assay: PBM binding z-score of `GCTAGCAGGCCATTTGCGTCACTCAATGACGGGC` = ? 0.189

Same question for `CCTGCTAGCTCAATGGTCAGCTAAAGCAGCTCGC` please. -0.805

Try the sequence `TCTCGGAAGACACGAAAGGTCAGAGCTCGACATC` 0.772

Now consider `TCTAGCAGGCCAGAGTGTCACTCAAGAGGTACGG` and answer again. 0.89

Next up: `TCTAGTTGGTCAAAGGTCACACAATCGAAATGCG` 11.8

What about this sequence? `TTAATGAGGTTAAAGATCAGGGAACGTGGCGTCG` 6.53

Now try `ATATGTAGGTTAGATGGGGTCATTCAGACTAGGC` . 5.98

`TCTTGTAGATCAGCAGGCTAAGAAAGCTGGCCAA` ? -0.735

Also check `TTACCAAGGTGAAGTTCGTTGATCCCTCTGTAGA` 1.16

Now consider `ATCGAAAGGTCGACGAGGTGAGTTTACACCGTTT` . 2.73

Likewise for `CCTATTAGTTGACCATGAGGGCAACCGAAGCTCG` ? 0.438

Would you kindly repeat that for `GCTTGTAGATCAAGGTCAAGAAAGACTAAGCTAA` ? 1.86

---

Can you tell me PBM binding z-score for the items I'm about to list?
Test system: LXRb homodimer (NR concentration 270 nM)
Assay: PBM binding z-score (relative to random genomic background probes); higher = stronger binding; sequences stand for … in GC…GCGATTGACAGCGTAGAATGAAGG

Which value of PBM binding z-score has been reported for `ATCCAAAGGTCGTGAGGTGAGTATACAGAAAGGC` in the records? 0.687

Same read-out for `CTCAAAAGGTCGGTTGAGGTGAGTATACGGATAA` ? 0.0339

And `ACTAGCAGCCCAAGTTTGGGTCACTCAAACAAAG` ? -0.605

Also check `TCTTGTAGATCAACCAGGTTAAGAAAGCCTGAGT` -0.277

Here is the next sequence: `CCTGCTAGGTCATGGACAGCTAATCTACAGTATG` -0.251

What do you get for `TCTGCGAGGTCAGTTGGTCAGCTAACGAGCTGCC` ? 1.26

Let us now turn to `CCTCGGAGGACAACAGGAGGTCAGAGCGGCCAGA` -0.43

Also check `ATATGTAGGTTAGCTGGGGTCGTTCAGACTAGGC` 0.5

Also, `CGACCAAGGTCAGAGAGGTCAGTGAATGCCGAGT` please. -0.0164

What about this sequence? `TCGAGAAGGTTAGTCGGGGCATTCAGCCAACATA` -0.323

Also check `TCTATTAGTTGAAGGGCAACCCACGAGTCCGTTT` 0.631

Continue with `TCGAGTAGCTTAGGGGCATTCAGAATGGCGTCGA` -1.06

Now this one: `ACTAGCAGGCCAGGGGTCACTCAAGATTAGTCCG` 0.258

Param item: `GCTAGTTGGTCAGTAAAAGGTCAAACACCGGTCG` 1.54

Try this sequence next: `GTACCAAGGTGAATAGGTCGCTGATGAGTAGGCG` -0.695

Quick one: `CCTGCTAGGTCATGGTCACCTAATCTACAGTATG` -0.376

Note, next up: `TCAGACAGGGGAAGGTAACTCAGGTACGCAGTCG` 0.859

Likewise for `CTCGAAAGGTCGTGCTCAGGTGAGCATACCAAAC` ? 0.516

Do the same for `ATCTCTAGGTAACCAAGATCAGTGAATGCCGAAC` please 0.276

Record: `CGAACCAGGTCATTGACAGGACAGTGAATAGTAA` 0.324

Can you handle `TTCCCAAGGTGAGCTGAGGTCGTTGATCCAACTC` next? -1.02

Cool, now `CGAACTAGGTCATTGACAGGTCAGTGAATAGTAA` 0.218

Thanks! And `TAGCCTAGGTGATTCAGGGGCCAGTATAGAAAGC` ? -0.239

Also, `ATCTCTAGGTAAGACTCAGTTCAGTGATGAACGC` please. 0.676

Next: `TCATAGAGGTAAATGCTAGGTGAAAGTCCGATCT` -0.74

And for `ACTCAGAGGACAAAGGTCAGAGCTACGCCAGTGA` ? 0.532

// repeat for `TCTTGTAGATCAAGTAGGTTAAGAAAGCCTGAGT` and report -0.306

Proceed to `CCGACTGGGGCAGACAGGTTACCATACCATCCGG` -0.833

Same read-out for `TGAATGTGGTTAAAGATCAGGGAACGTGGCGTCG` ? 0.696

Another sequence: `ATCGAACGGTCGAAGGTGAGTATACCCACCCGAA` -0.206

Now the sequence `GCAGACAGGAGAAACGCAGGTAACTCAGGGTGGC` -1.34

Follow-up entry: `ACTCGGAGGACAAAGTTCAGAGCTACGCCAGTGA` -0.232

Request: `CAAACTAGGTCTCCGGAAGGTCAAAGTCCGCATG` 0.445

What do you have for `ACTATTAGTTGACTAAGGGCAACCGATACGACGC` ? 0.478

Another sequence to check: `CCGAATGGGGCAGAAAGGTTACCATACCATCCGG` -0.832

Could you do the same for `GCTTGTAGATCTAGGTTAAGAAAGACTAAGCTAA` , please? -0.791

Next entry: `TCTCTTAGTTGAAGGGCAACCGACGAGTCCGTTT` 0.697

For `GCATATAGGTAATAAAAGGTGAAAGTCCGATTGT` then? -0.165

One more sequence: `TTACCAAGGTGAAGGTCGTTAATCCCTCTGTAGA` -0.624

Consider next the sequence `CAAACTAGGTCACCGGAGGGTCAAAGTCCGCATG` in the same way. 0.645

What do we get for `ACCGAAAGGTCGACGAGGTGAGTATACACCGTTT` ? -0.0188

Now the sequence `ACCTCTAGGTAACAAGTTCAGTGAAAGAGAGGAC` -0.0173

// same read-out, input: `TCGAGTAGGTTAGGGCCATTCAGAATGGCGTCGA` -1.05

And `TCTTATAGGTAAATGCTAGGTGAAAGTCCGATCT` ? 0.669

Same lookup for `TCTTTTAGTTGAAGGGCAACCGACGAGTCCGTTT` , please. 1.62

Then this sequence: `CGTCCAAGGTCATTGCTAGGTCAGTGAAAGCATT` 1.37

And `CTCGAAAGGTCGGTTGAGGTGAGGATACGGATAA` ? -0.104

Then `CGAACTGGGTCAAGGACAGTGAATCTCCGCACGC` ? -0.484

And the next one, `TCTCGGAGGACACGAAAGTCAGAGCTTTCCAGAG` ? -1.24

Subsequent entry: `TCTTGTAGATCAAAGGTTAAGAATGCCGAAGCCT` 0.134

Next: `ACAACGAGGGCAATGAGTTGATAGCACGGGTGGC` -0.343
